tested_system: Androgen receptor (Homo sapiens) (UniProt P10275)
Sequence (P10275 whole entry, looked up): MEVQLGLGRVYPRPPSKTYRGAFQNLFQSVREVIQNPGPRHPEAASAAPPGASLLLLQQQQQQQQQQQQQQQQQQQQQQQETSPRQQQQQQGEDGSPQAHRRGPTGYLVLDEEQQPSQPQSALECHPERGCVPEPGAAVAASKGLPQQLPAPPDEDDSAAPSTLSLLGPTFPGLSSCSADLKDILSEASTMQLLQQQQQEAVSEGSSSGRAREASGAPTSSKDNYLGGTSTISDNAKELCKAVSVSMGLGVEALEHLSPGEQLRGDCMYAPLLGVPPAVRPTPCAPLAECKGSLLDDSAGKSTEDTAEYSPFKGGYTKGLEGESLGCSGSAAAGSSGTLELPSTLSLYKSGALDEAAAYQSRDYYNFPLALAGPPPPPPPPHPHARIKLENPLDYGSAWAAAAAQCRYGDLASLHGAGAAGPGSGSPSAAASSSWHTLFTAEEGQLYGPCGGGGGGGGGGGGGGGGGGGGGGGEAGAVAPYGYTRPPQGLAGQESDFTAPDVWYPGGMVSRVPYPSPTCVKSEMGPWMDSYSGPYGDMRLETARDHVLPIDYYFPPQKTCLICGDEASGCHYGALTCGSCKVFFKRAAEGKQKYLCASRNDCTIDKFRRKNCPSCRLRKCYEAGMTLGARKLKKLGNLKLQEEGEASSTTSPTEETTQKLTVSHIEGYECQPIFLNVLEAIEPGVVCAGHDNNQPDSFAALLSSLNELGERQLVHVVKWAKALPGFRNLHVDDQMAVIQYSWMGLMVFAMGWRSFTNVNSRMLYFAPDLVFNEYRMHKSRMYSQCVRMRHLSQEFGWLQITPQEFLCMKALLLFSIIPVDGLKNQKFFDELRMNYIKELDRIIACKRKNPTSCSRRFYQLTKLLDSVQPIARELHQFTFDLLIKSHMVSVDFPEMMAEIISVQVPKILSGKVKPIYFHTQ
procedure_text: qHTS assay for small molecule agonists of androgen receptor signaling (AID 588515); also: % is scaled to controls: 0 for no effect and ±100 for the full control effect
reported_conditions: AR-UAS-bla HEK293, beta-lactamase ratio, agonist 16 h; stronger effect = higher value
Records with an inconclusive call do not appear. Activity calls are given as the source filed them. Calls follow the shape of the dose curve; as a rule, active = well fitted curve in the direction sought with a large enough effect in the signal ratio, with a control signal flat; inconclusive = small, poorly fitted or top-dose-only effect, or effect the other way, or a change in a side signal; inactive = no such curve, though single readings can be large or run the other way; the % refers to the signal ratio.
value_type: activation

// Cc1ccc(C)cc1 : activation value = 10.6% (inactive)

// CCN(Cc1ccccc1)c1ccccc1 : activation value = 11.1% (inactive)

// CCC(C)(C)C(=O)O : activation value = -5.44% (inactive)

// CC(=C/C=C/C(C)=C/C=C/C=C(C)/C=C/C=C(C)/C=C/C(=O)O)/C=C/C(=O)O : activation value = 17% (inactive)

// CCCOCC(C)OCC(C)O (stereo unspecified) : activation value = 12.1% (inactive)

// Nc1cc(S(=O)(=O)O)ccc1O : activation value = 14.7% (inactive)

// CC(=O)CC(C)C : activation value = 2.1% (inactive)

// Cc1cc(C)cc(N)c1 : activation value = 2.27% (inactive)

// OCCO : activation value = -10.8% (inactive)

// Nc1cccc([N+](=O)[O-])c1 : activation value = -5.67% (inactive)

// Nc1ccc(Cl)cc1[N+](=O)[O-] : activation value = 7.43% (inactive)

// O=Cc1ccc(Cl)cc1 : activation value = -1.22% (inactive)

// c1ccsc1 : activation value = -6.67% (inactive)

// CCCC(Cl)CCCC(Cl)CCC(Cl)CCC(Cl)CCC(Cl)CCCC(Cl)CCC (stereo unspecified) : activation value = -5.75% (inactive)

// Cc1cccc(C)c1O : activation value = -2.64% (inactive)

// CC(=O)Nc1ccc(N)cc1 : activation value = -10.4% (inactive)

// O=C(O)CCSSCCC(=O)O : activation value = -2.34% (inactive)

// ClCCl : activation value = 2.05% (inactive)

// CCCC(C)CO (stereo unspecified) : activation value = -5.4% (inactive)

// O=C1CCCCC1 : activation value = 14.6% (inactive)

// CCOc1ccc(NC(C)=O)cc1N : activation value = 0.896% (inactive)

====

procedure_text: qHTS assay for small molecule antagonists of peroxisome proliferator-activated receptor delta signaling (AID 588535);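 also: cells co-treated with a PPAR-delta agonist as stimulator during compound exposure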
reported_conditions: HEK293T PPARd-UAS-bla, beta-lactamase FRET ratio, 18 h; 460 nm channel
Inconclusive results are not listed.
Please go through the items and note down their max response.
Please give a number only; it is taken to be in %.

// CC(C)C=O : max response value = -3.06

// O=C(O)CNC(=O)c1ccc([N+](=O)[O-])cc1 : max response value = 53.5

// C=Cc1ccc(C=C)cc1 : max response value = -5.46

// Nc1cccc2c(=O)[nH][nH]c(=O)c12 : max response value = -7.57

// CC(=O)c1cccc([N+](=O)[O-])c1 : max response value = 13.5

// Cc1ccc(C)c(N)c1 : max response value = 30.9

// O=C(O)c1cc(Cl)cc(Cl)c1 : max response value = 29.5

// O=C(O)c1ccccc1Cl : max response value = -1.82

====

procedure_text: Cell Viability - Hek293 (AID 427);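 also: cells exposed to compound for 40 hours at 37 °C before reading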
reported_conditions: qHTS
Inconclusive results are not listed. Active and inactive are the calls of the source.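 How the source made its calls: active means compounds whose dose-response curve shows a full or clear partial loss of cell viability, called from curve shape rather than a numeric limit; inconclusive means weak partial curves or an effect only at the top dose; inactive means no dose-dependent loss of viability.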
Your reply should match one of these outcome classes. Yes for active, No for inactive

Which outcome was assigned to CC(C)Nc1ccccc1 in this test?
No

Which outcome was assigned to Nc1ccc([N+](=O)[O-])c(N)c1 in this test?
No

Which outcome was assigned to O=C(O)c1cccc(Cl)c1Cl in this test?
No

Which outcome was assigned to CC(C)(O)CCC(C)(C)O in this test?
No

Which outcome was assigned to CCCCC(=O)N(C)C in this test?
No

Which outcome was assigned to Cc1ccc2c(c1[N+](=O)[O-])C(=O)c1ccccc1C2=O in this test?
Yes

Which outcome was assigned to Cc1cc(C)cc(O)c1 in this test?
No

Which outcome was assigned to Cc1ccc(C(C)(C)C)cc1 in this test?
No

Which outcome was assigned to NC(=O)c1cccc([N+](=O)[O-])c1 in this test?
No

Which outcome was assigned to CC(C)(C)OC=O in this test?
No

Which outcome was assigned to CC(=O)OCCC(C)C in this test?
No

Which outcome was assigned to S=C([S-])NCCNC(=S)[S-].[Zn+2] in this test?
No

Which outcome was assigned to O=C(O)c1c(Cl)cccc1Cl in this test?
No

Which outcome was assigned to Nc1cccc(N)c1 in this test?
No

Which outcome was assigned to CCOC(C)(C)C in this test?
No

Which outcome was assigned to Cc1cccc2sc(N)nc12 in this test?
No

Which outcome was assigned to CO[Si](CCCNCCC[Si](OC)(OC)OC)(OC)OC in this test?
No

Which outcome was assigned to CC(=O)c1ccc([N+](=O)[O-])cc1 in this test?
No

Which outcome was assigned to C=C(C)C(=O)OCCCCCCCCCC in this test?
No

Which outcome was assigned to C=CCn1c(=O)n(CC=C)c(=O)n(CC=C)c1=O in this test?
No

Which outcome was assigned to CCC(O)C(C)(C)C (centres undefined) in this test?
No

Which outcome was assigned to O=P(O)(OCc1ccccc1)OCc1ccccc1 in this test?
No

Which outcome was assigned to OC(CCl)CCl in this test?
No

Which outcome was assigned to Cc1ccccc1C(N)=O in this test?
No

Which outcome was assigned to Nc1cccc(S(=O)(=O)O)c1 in this test?
No

Which outcome was assigned to O=[N+]([O-])c1ccc(Cl)cc1Cl in this test?
No

Which outcome was assigned to CCCCC/C=C/C=C/C=O in this test?
No

Which outcome was assigned to O=Cc1ccccc1Cl in this test?
No

Which outcome was assigned to CCCCCCCCC in this test?
No

Which outcome was assigned to C1CCCC1 in this test?
No

Which outcome was assigned to c1ccc(Oc2ccccc2)cc1 in this test?
No

Which outcome was assigned to CC(=O)c1ccccn1 in this test?
No

Which outcome was assigned to COc1ccc(OC)cc1 in this test?
No

Which outcome was assigned to CCOc1ccccc1N in this test?
No

Which outcome was assigned to ClC/C=C/CCl in this test?
No

Which outcome was assigned to CC(C)(C)c1ccc(OCC2CO2)cc1 (centres undefined) in this test?
No

Which outcome was assigned to CCCCC(CC)C(=O)O (centres undefined) in this test?
No

Which outcome was assigned to CC(C)c1ccccc1 in this test?
No

Which outcome was assigned to CC/C=C/C#N in this test?
No

Which outcome was assigned to Cc1ccc([N+](=O)[O-])c(N)c1 in this test?
No

Which outcome was assigned to COC(=O)CS in this test?
No

Which outcome was assigned to O=[N+]([O-])c1cccc(C(F)(F)F)c1 in this test?
No

Which outcome was assigned to CCN(CC)c1cccc(O)c1 in this test?
No

Which outcome was assigned to Cc1ccc2cccnc2c1 in this test?
No

Which outcome was assigned to Cc1ccccc1C#N in this test?
No

Which outcome was assigned to O=C1NC(=O)c2cc([N+](=O)[O-])ccc21 in this test?
No

Which outcome was assigned to CC(=O)c1cccc([N+](=O)[O-])c1 in this test?
No

Which outcome was assigned to C=CC(=O)NC(C)C in this test?
No

Which outcome was assigned to COc1cccc(N)c1 in this test?
No

Which outcome was assigned to Nc1cccc(C(F)(F)F)c1 in this test?
No

Which outcome was assigned to CC/C=C1/OC(=O)c2ccccc21 in this test?
No

Which outcome was assigned to Cc1cc([N+](=O)[O-])ccc1N in this test?
No

Which outcome was assigned to CCCCCCCCN in this test?
No

Which outcome was assigned to CC(=O)Nc1ccc(C)cc1 in this test?
No

Which outcome was assigned to O=C(O)CN(CC(=O)O)CC(=O)O in this test?
No

Which outcome was assigned to CCCCN(CCO)CCCC in this test?
No

Which outcome was assigned to CCCOCC(C)O (centres undefined) in this test?
No

Which outcome was assigned to CC(=O)OC(C)C in this test?
No

Which outcome was assigned to CC=C(Cl)Cl in this test?
No

Which outcome was assigned to [O-]/[N+](=N\O)c1ccccc1 in this test?
No

Which outcome was assigned to Nc1cc([N+](=O)[O-])ccc1C(=O)O in this test?
No

Which outcome was assigned to O=Cc1cccc(Br)c1 in this test?
No

Which outcome was assigned to Cc1cccc([N+](=O)[O-])c1C(=O)O in this test?
No

Which outcome was assigned to Cc1cccc(C)c1[N+](=O)[O-] in this test?
No

Which outcome was assigned to CCN(C(=O)N(CC)c1ccccc1)c1ccccc1 in this test?
No

Which outcome was assigned to Cc1cc(C)cc(N)c1 in this test?
No

Which outcome was assigned to CC(CCl)OC(C)CCl (centres undefined) in this test?
No

Which outcome was assigned to Cc1ccc2ncccc2c1 in this test?
No

Which outcome was assigned to O=C1CCCCC1 in this test?
No
